Test system: Pseudotyped HCoV-229E
RUN PARAMETERS: 48 h
Positions of bridges follow the written chain, without caps; N, C: chain ends. No end group written: not given here.
REPORTED METRIC: pIC50
Give bare numbers, as −log10 of the molar value.

Inquiry: Report pIC50 for DCAWHLGELVWCTSLDQINVTFLDLEYEMKKLEEAIKKLEESYIDLKEL (disulfide 2-12) [IBP-EK1] tested on Pseudotyped HCoV-229E.
Reply text: 5.48

----------
METHOD: in vivo
RUN PARAMETERS: rhesus monkey, iv, 10 mg/kg
Positions of bridges follow the written chain, without caps; N, C: chain ends. No end group written: not given here.
REPORTED METRIC: Cmax (µg/mL)
Numbers only, in µg/mL.

Inquiry: Fill blank: measured Cmax of the sequence DCAWHLGELVWCTSLDQINVTFLDLEYEMKKLEEAIKKLEESYIDLKEL (disulfide 2-12) [IBP-EK1] is ____.
Reply text: 51.7
